- system: Staphylococcus aureus alpha toxin (Staphylococcus aureus, UniProt P09616)
- Sequence (P09616 27-319 limits assumed): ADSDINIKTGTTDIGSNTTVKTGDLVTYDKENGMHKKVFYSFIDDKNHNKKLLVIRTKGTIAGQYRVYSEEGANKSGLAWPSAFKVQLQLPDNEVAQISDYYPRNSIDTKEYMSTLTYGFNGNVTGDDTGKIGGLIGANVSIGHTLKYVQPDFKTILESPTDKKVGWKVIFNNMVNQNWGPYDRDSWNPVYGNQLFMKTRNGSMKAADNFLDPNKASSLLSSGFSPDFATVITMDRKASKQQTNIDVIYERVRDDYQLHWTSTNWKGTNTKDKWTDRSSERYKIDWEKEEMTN
endpoint name: EC50 (ng/mL)
Value expressed in ng/mL; do not type the unit.

**Query** Looking for the measured EC50 of A3-Fc fusion proteins binding with antigen (Fc fusion) QVQLVESGGGLVQAGGSLTLSCVASGFTFSRHGMTWVRQAPGKELDYVGEINIPGDDVDYDISVKGRFTISRDNAKNTVYLHMTNLKVEDTATYWCAQAGENMRLVTRRQGTQVTVSTEPKSSDKTHTCPPCPAPELLGGPSVFLFPPKPKDTLYITREPEVTCVVVDVSHEDPEVKFNWYVDGVEVHNAKTKPREEQYNSTYRVVSVLTVLHQDWLNGKEYKCKVSNKALPAPIEKTISKAKGQPREPQVYTLPPSREEMTKNQVSLTCLVKGFYPSDIAVEWESNGQPENNYKTTPPVLDSDGSFFLYSKLTVDKSRWQQGNVFSCSVMHEALHNHYTQKSLSLSPGK , can you help?
**Result** 9

**Query** Looking for the measured EC50 of G1-Fc fusion proteins binding with antigen (Fc fusion) QVQLVESGGDLVQPGGSLTLACEASGFTISSTGMTWVRQAPGKELDWVGDINIPGTDTDYDISVKGRFTISKDHAKNTVYLQMTSLRPEDTAIYYCAKQGANLRQGVQSPGTLVTVSSEPKSSDKTHTCPPCPAPELLGGPSVFLFPPKPKDTLYITREPEVTCVVVDVSHEDPEVKFNWYVDGVEVHNAKTKPREEQYNSTYRVVSVLTVLHQDWLNGKEYKCKVSNKALPAPIEKTISKAKGQPREPQVYTLPPSREEMTKNQVSLTCLVKGFYPSDIAVEWESNGQPENNYKTTPPVLDSDGSFFLYSKLTVDKSRWQQGNVFSCSVMHEALHNHYTQKSLSLSPGK , can you help?
**Result** 7

**Query** Looking for the measured EC50 of huF6-Fc fusion proteins binding with antigen (Fc fusion) EVQLVESGGGLVQPGGSLRLSCAASGSTLDSYTVAWVRQAPGKGLEWVSCASRSGASTNYANSVKGRFTISRDNSKNTVYLQMNSLRAEDTAVYYCAAYRNFGNFCVMGRYEYDEWGQGTLVTVSSEPKSSDKTHTCPPCPAPELLGGPSVFLFPPKPKDTLYITREPEVTCVVVDVSHEDPEVKFNWYVDGVEVHNAKTKPREEQYNSTYRVVSVLTVLHQDWLNGKEYKCKVSNKALPAPIEKTISKAKGQPREPQVYTLPPSREEMTKNQVSLTCLVKGFYPSDIAVEWESNGQPENNYKTTPPVLDSDGSFFLYSKLTVDKSRWQQGNVFSCSVMHEALHNHYTQKSLSLSPGK , can you help?
**Result** 2.72
